study-system: T1, His-tagged PD-L1 ECD protein (ACROBiosystems) (human, UniProt Q9NZQ7 19-238)
T1 construct: Bought protein; also called PD-L1-His; PD-L1/His; not shown: His tag
T1 sequence (Q9NZQ7 19-238): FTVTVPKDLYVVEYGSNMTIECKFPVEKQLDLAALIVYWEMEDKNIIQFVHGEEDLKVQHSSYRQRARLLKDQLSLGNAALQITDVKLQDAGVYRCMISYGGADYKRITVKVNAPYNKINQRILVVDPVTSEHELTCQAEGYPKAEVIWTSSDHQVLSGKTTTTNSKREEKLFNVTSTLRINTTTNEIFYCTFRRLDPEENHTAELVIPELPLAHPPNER
assay-protocol: SPR, IgG captured by anti-human Fc, PD-L1-His analyte
Description: Briefly, capturing antibody (anti-mouse Fc antibody for the affinity measurement of mouse mAbs, or anti-human Fc antibody for the affinity measurement of chimeric and humanized mAbs, GE healthcare) was immobilized on a Biacore™ CM5 chip to approximately 7,000 RU using EDC-activated amine coupling chemistry. Antibody of interest (5 μg/ml) was captured for 60 seconds onto the sensorchip surface. […]
reported-metric: kon (M⁻¹ s⁻¹)
// units = M⁻¹ s⁻¹; emit number, no label

Study these solved cases before continuing.
53C1_VH3-VL1.M1 (antibody, human IgG1, kappa, N297A, V domains shown, Humanized, hIgG1 effector-less Fc, kappa; see recheck on K24R in the .M1 light chain) VH: EVQLVQSGAEVKKPGASVKLSCKASGYIFTGYGITWVRQAPGQGLEWIGEIFPRRVNTYYSEKFKGRATLTADTSTSTAYMELRSLRSDDTAVYFCARDYDPYFALDYWGQGTTVTVSS VL: DIQMTQSPSSLSASVGDRVTITCRASQDVSTAVDWYQQKPGKAPKLLIYSASYRYTGVPDRFSGSGSGTDFTFTISSLQPEDIATYYCQQHYSIPFTFGQGTKLEIKR | 290000
53C1_chimeric (antibody, human IgG1, kappa, N297A, V domains shown, Human IgG1 with effector-less Fc mutations, human kappa; also called chimeric 53C1F3D4) VH: QVQLQQSGNELARPGASVRLSCKASGYIFTGYGITWVRQRPGQGLEWIGEIFPRRVNTYYSEKFKGRATLTADISSSTAYMELRSLTSEDSAVYFCARDYDPYFALDYWGQGTSVTVSS VL: DIVMTQSHKFMSTSVGDRVSITCKASQDVSTAVDWYQQKPGQSPKLLIYSASYRYTGVPDRFTGSGSGTAFTFTISGEQAEDLAVYYCQQHYSIPFTFGGGTKLEIKR | 240000
29A8_VH5-VL1.M1 (antibody, human IgG1, kappa, N297A, V domains shown, Humanized, hIgG1 effector-less Fc, kappa; see recheck on K24R in the .M1 light chain) VH: EVQLQESGPGLVKPSETLSLTCTVSGYSITSDFAWDWIRQPPGKGLEWIGHIRFSGTTSYNPSLKSRVTISRDTSKNQFSLKLSSVTAADTAVYYCARSTLITKGFFDYWGQGTLVTVSS VL: DIQMTQSPSSLSASVGDRVTITCRASQDVSPAVAWYQQKPGKAPKLLIYWASTRHTGVPSRFSGSGSGTDFTLTISSLQPEDFATYYCQQHYSTPWTFGQGTKVEIKR | 620000

Could you now consider this next binder?
For 29A8_chimeric (antibody, human IgG1, kappa, N297A, V domains shown, Human IgG1 with effector-less Fc mutations, human kappa; also called chimeric 29A8H8C7) VH: DVQLQGSGPGLVKPSQSLSLTCTVTGYSITSDFAWDWIRQFPGNKLEWMGHIRFSGTTSYNPSLKSRISITRDTSKNQFFLQLNSVTSEDTATYYCARSTLITKGFFDYWGQGTTLTVSS VL: DIVMTQSHKFMSTSVGGRVSITCKASQDVSPAVAWYQQKPGQSPKLLIYWASTRHTGVPDRFTGSGSGTDFTLTISSVQTEDLALYYCQQHYSTPWTFGGGTKLEIKR the binder record lists kon as 640000

Numbers sourced from patent US20220135687A1.
